# Test system: hLiMTs
# assay-explanation: Combined HCI (HCS) and cellular ATP 3D assay in hLiMTs
# test-parameters: hLiMTs; all endpoints; cut-off <10 uM
attribute-measured: hLiMTs <10 uM All

Cn1cnc([N+](=O)[O-])c1Sc1ncnc2nc[nH]c12 [azathioprine]; +ve (<10 uM)
[H]/N=C(/N)N[C@H]1[C@H](O)[C@@H](O)[C@H](O[C@@H]2O[C@@H](C)[C@](O)(C=O)[C@H]2O[C@@H]2O[C@@H](CO)[C@H](O)[C@@H](O)[C@@H]2NC)[C@@H](N/C(N)=N\[H])[C@@H]1O [streptomycin, reference compound]; -ve
CN(Cc1cnc2nc(N)nc(N)c2n1)c1ccc(C(=O)N[C@@H](CCC(=O)O)C(=O)O)cc1 [methotrexate, reference compound]; +ve (<10 uM)

---

# assay-explanation: Plasma free fraction (fu) and unbound Cmax (Cmax,u)
# Type: in vitro ADME, human
# test-parameters: unbound plasma Cmax
Classification field: rule met = Human plasma Cmax,u at or over 300 nM; rule not met = Human plasma Cmax,u under 300 nM.

Worked examples follow.
Nc1cc(N2CCCCC2)nc(N)[n+]1[O-]; rule met
Clc1ccccc1CN1CCc2sccc2C1; rule not met
Cc1ccc(N(CC2=NCCN2)c2cccc(O)c2)cc1; rule not met
CN(C)C(=O)Oc1cccc([N+](C)(C)C)c1; rule not met
CCN(CC)C(=O)/C(C#N)=C/c1cc(O)c(O)c([N+](=O)[O-])c1; rule not met

Then this compound:
INPUT: Decide: is the reported value of Human plasma Cmax,u for COc1ccccc1Oc1c(NS(=O)(=O)c2ccc(C(C)(C)C)cc2)nc(-c2ncccn2)nc1OCCO equal to or greater than 300 nM?
OUTPUT: rule not met

---

# Test system: HepaRG spheroids
# test-parameters: human
attribute-measured: HepaRG Cmax min All

CC(C)[N+](C)(CCOC(=O)C1c2ccccc2Oc2ccccc21)C(C)C; -ve
CO[C@@]12[C@H](COC(N)=O)C3=C(C(=O)C(C)=C(N)C3=O)N1C[C@@H]1N[C@@H]12; +ve
Nc1c2c(nc3ccccc13)CCCC2 [tacrine, reference compound]; -ve
O=P1(N(CCCl)CCCl)NCCCO1 (stereo not shown) [cyclophosphamide, reference compound]; -ve

---

# Tested on: HepaRG spheroids
# assay-explanation: Combined HCI (HCS) and cellular ATP 3D assay in HepaRG spheroids
# test-parameters: HepaRG; all endpoints; cut-off <100x Avg Cmaxu
attribute-measured: HepaRG <100x Avg Cmaxu All

CCN(CC)C(=O)/C(C#N)=C/c1cc(O)c(O)c([N+](=O)[O-])c1 [entacapone]; -ve
NC(=O)N1c2ccccc2C=Cc2ccccc21 [carbamazepine, reference compound]; +ve (<100x Avg Cmaxu)
CN(Cc1cnc2nc(N)nc(N)c2n1)c1ccc(C(=O)N[C@@H](CCC(=O)O)C(=O)O)cc1 [methotrexate, reference compound]; +ve (<100x Avg Cmaxu)
Cc1c(-c2ccccc2)oc2c(C(=O)OCCN3CCCCC3)cccc2c1=O [flavoxate]; -ve
C[N+](C)(C)CC(=O)O [betaine, reference compound]; -ve
CC/C(=C(\c1ccccc1)c1ccc(OCCN(C)C)cc1)c1ccccc1 [tamoxifen]; -ve
CN1CCN(C2=Nc3cc(Cl)ccc3Nc3ccccc32)CC1 [clozapine]; +ve (<100x Avg Cmaxu)
CC(=O)Nc1ccc(O)cc1 [acetaminophen]; +ve (<100x Avg Cmaxu)

As a next step, examine the molecule that follows.
response.value for N[C@@H]1[C@H]2CN(c3nc4c(cc3F)c(=O)c(C(=O)O)cn4-c3ccc(F)cc3F)C[C@@H]12 [trovafloxacin] (field: HepaRG <100x Avg Cmaxu All) = +ve (<100x Avg Cmaxu)

Source listed as paper PMC7395068.
